Target: T1, human PD-L2 on CHO-K1 cells of the Promega PD-1/PD-L2 blockade bioassay (human, UniProt Q9BQ51 20-273)
T1 sequence (looked up): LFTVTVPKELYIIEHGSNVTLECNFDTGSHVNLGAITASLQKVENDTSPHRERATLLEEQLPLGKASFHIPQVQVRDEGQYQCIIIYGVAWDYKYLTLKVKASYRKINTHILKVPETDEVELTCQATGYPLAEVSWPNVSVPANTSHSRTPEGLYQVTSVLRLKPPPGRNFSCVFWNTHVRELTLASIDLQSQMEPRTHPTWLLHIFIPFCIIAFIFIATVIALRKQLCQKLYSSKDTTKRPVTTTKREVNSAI
Test: cell-based or functional assay
Some binders, each annotated with its measured EC50 (PD-1/PD-L2 blockade reporter assay, luminescence).
Answer in nM, number only, no unit symbol.

// solved cases for EC50 (PD-1/PD-L2 blockade reporter assay, luminescence) follow
[[record]]
binder = "VH6/VK2 (antibody, V domains shown, hIgG1 backbone, CHO expressed) VH: QVQLVQSGAEVKKPGSSVKVSCKASGYSFSNYFIEWVKQPPGKGLEWIGLNIPGSGGSNYAEKFKGRVTITADKSTSTAYMELSSLRSEDTAVYYCARRRLPPDWYFDVWGQGTTVTVSS VL: DVVMTQSPLSLPVTLGQPASISCRSSQSLVHSDGNTYLHWYQQKPGQPPKLLIYKVSNRFSGVPDRFSGSGSGTDFTLKISRVEAEDVGVYYCSQSTHVPWTFGGGTKVEIK"
value = 0.64

[[record]]
binder = "VH7/VK2 (antibody, V domains shown, hIgG1 backbone, CHO expressed) VH: QVQLVQSGAELKKPGSSVKVSCKASGYAFSNYFIEWVKQPPGKGLEWIGLNIPGSGGSNYAEKFKGRATITADKSTSTAYMELSSLRSEDTAVYYCARRRLPPDWYFDVWGQGTTVTVSS VL: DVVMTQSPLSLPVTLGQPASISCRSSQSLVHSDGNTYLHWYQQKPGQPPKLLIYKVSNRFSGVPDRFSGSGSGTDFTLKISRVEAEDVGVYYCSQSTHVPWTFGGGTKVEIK"
value = 0.6


Now look at this entry.
For this binder ( VH8/VK2 (antibody, V domains shown, hIgG1 backbone, CHO expressed) VH: QVQLVQSGAEVKKPGSSVKVSCKASGYAFSNYFIEWVKQPPGKGLEWIGLNIPGSGGSNYAEKFKGRATITADKSTSTAYMELSSLRSEDTAVYYCARRRLPPDWYFDVWGQGTTVTVSS VL: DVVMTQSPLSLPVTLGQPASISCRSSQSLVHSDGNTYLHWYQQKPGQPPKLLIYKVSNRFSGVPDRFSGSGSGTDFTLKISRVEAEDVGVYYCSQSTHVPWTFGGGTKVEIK ), measured EC50 (PD-1/PD-L2 blockade reporter assay, luminescence) is 1.29
